Where these numbers come from: the supplement of paper PMC11246515

assay: total protein half-life in vivo (active degradation + dilution); higher = more stable protein; settings: wild type E. coli NCM3722; growth: C-lim chemostat; doubling time 3 h
observation.type: total protein half-life in vivo (h)
Write it as a number; the unit h goes unstated.

MELIFLGTSAGVPTRTRNVTAILLNLQHPTQSGLWLFDCGEGTQHQLLHTAFNPGKLDKIFISHLHGDHLFGLPGLLCSRSMSGIIQPLTIYGPQGIREFVETALRISGSWTDYPLEIVEIGAGEILDDGLRKVTAYPLEHPLECYGYRIEEHDKPGALNAQALKAAGVPPGPLFQELKAGKTITLEDGRQINGADYLAAPVPGKALAIFGDTGPCDAALDLAKGVDVMVHEATLDITMEAKANSRGHSSTRQAATLAREAGVGKLIITHVSSRYDDKGCQHLLRECRSIFPATELANDFTVFNV [P0A8V0] ... 3.01
MYYPFVRKALFQLDPERAHEFTFQQLRRITGTPFEALVRQKVPAKPVNCMGLTFKNPLGLAAGLDKDGECIDALGAMGFGSIEIGTVTPRPQPGNDKPRLFRLVDAEGLINRMGFNNLGVDNLVENVKKAHYDGVLGINIGKNKDTPVEQGKDDYLICMEKIYAYAGYIAINISSPNTPGLRTLQYGEALDDLLTAIKNKQNDLQAMHHKYVPIAVKIAPDLSEEELIQVADSLVRHNIDGVIATNTTLDRSLVQGMKNCDQTGGLSGRPLQLKSTEIIRRLSLELNGRLPIIGVGGIDSVIAAREKIAAGASLVQIYSGFIFKGPPLIKEIVTHI [P0A7E1] ... 3.04

Now consider a different sequence.
### Prompt Name the recorded total protein half-life in vivo for MKKIACLSALAAVLAFTAGTSVAATSTVTGGYAQSDAQGQMNKMGGFNLKYRYEEDNSPLGVIGSFTYTEKSRTASSGDYNKNQYYGITAGPAYRINDWASIYGVVGVGYGKFQTTEYPTYKHDTSDYGFSYGAGLQFNPMENVALDFSYEQSRIRSVDVGTWIAGVGYRF [P0A917] .
### Response 3.09

---

assay: total protein half-life in vivo (active degradation + dilution); higher = more stable protein; conditions: wild type E. coli NCM3722; growth: P-lim chemostat; doubling time 12 h
observation.type: total protein half-life in vivo
Your answer should be a number followed by the unit of measure.

Below, each entry is followed by its recorded total protein half-life in vivo result.
MAQLYFYYSAMNAGKSTALLQSSYNYQERGMRTVVYTAEIDDRFGAGKVSSRIGLSSPAKLFNQNSSLFDEIRAEHEQQAIHCVLVDECQFLTRQQVYELSEVVDQLDIPVLCYGLRTDFRGELFIGSQYLLAWSDKLVELKTICFCGRKASMVLRLDQAGRPYNEGEQVVIGGNERYVSVCRKHYKEALQVDSLTAIQERHRHD ... 11.7 h
MSEVEFSHEYWMRHALTLAKRAWDEREVPVGAVLVHNNRVIGEGWNRPIGRHDPTAHAEIMALRQGGLVMQNYRLIDATLYVTLEPCVMCAGAMIHSRIGRVVFGARDAKTGAAGSLMDVLHHPGMNHRVEITEGILADECAALLSDFFRMRRQEIKAQKKAQSSTD ... 10.7 h
MIDLRSDTVTRPSRAMLEAMMAAPVGDDVYGDDPTVNALQDYAAELSGKEAAIFLPTGTQANLVALLSHCERGEEYIVGQAAHNYLFEAGGAAVLGSIQPQPIDAAADGTLPLDKVAMKIKPDDIHFARTKLLSLENTHNGKVLPREYLKEAWEFTRERNLALHVDGARIFNAVVAYGCELKEITQYCDSFTICLSKGLGTPVGSLLVGNRDYIKRAIRWRKMTGGGMRQSGILAAAGIYALKNNVARLQEDHDNAAWMAEQLREAGADVMRQDTNMLFVRVGEENAAALGEYMKARNVLINASPIVRLVTHLDVSREQLAEVAAHWRAFLAR ... 11.2 h
MKKILLMLSLLFFTTAGFSEVSDTLVTGGYDKQAMSDAIKHARKETDKFIEVMNKKDADTFAVKAPITDHGRTEHFWLTDVTYSNGMFIGVISNDPGIVTNVEYGQEWKIKKEDISDWMYTRGDKIYGGYTIDPLLVTYPKEEADELRAKLVR ... 5.28 h

Now consider a different sequence.
### Prompt Name the recorded total protein half-life in vivo for MNKRDAINHIRQFGGRLDRFRKSVGGSGDGGRNAPKRAKSSPKPVNRKTNVFNEQVRYAFHGALQDLKSKPFATFLTVMVIAISLTLPSVCYMVYKNVNQAATQYYPSPQITVYLQKTLDDDAAAGVVAQLQAEQGVEKVNYLSREDALGEFRNWSGFGGALDMLEENPLPAVAVVIPKLDFQGTESLNTLRDRITQINGIDEVRMDDSWFARLAALTGLVGRVSAMIGVLMVAAVFLVIGNSVRLSIFARRDSINVQKLIGATDGFILRPFLYGGALLGFSGALLSLILSEILVLRLSSAVAEVAQVFGTKFDINGLSFDECLLLLLVCSMIGWVAAWLATVQHLRHFTPE [P0AC30] .
### Response 13.5 h
